The entries below come with measured protein stability index values attached.
B1: CDKN1A (parent)
chain: GRKRRQTSMTDFYHSKRRLIFSKR

variants of: B1; experiment: protein stability index of a GFP-peptide fusion (GPS, HEK-293T) (PSI 1-6); higher = more stable; details: c terminus: a fixed tail appended;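 further: lentivirally expressed fusions sorted by FACS into six bins by GFP to DsRed ratio, PSI derived from sequencing read proportions per bin multiplied by bin number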
# answer = number (no unit)

T10S    2.54

variant S22D , protein stability index observed: 2.17

variant L19M , protein stability index observed: 3.98
